Protocol: Reduction in surface tension in 0.1 M PBS after 10 mins by Wilhelmy plate method using tensitometer
Type: physicochemical
# EC50 at 10 min per entry
Give the number first and the unit second.

// worked examples, EC50 at 10 min included
QUERY: Would you mind telling me what EC50 at 10 min value was observed for `CC1(C)[C@@H](O)CC[C@]2(C)[C@H]3C(=O)C=C4[C@@H]5C[C@@](C)(C(=O)O)CC[C@]5(C)CC[C@@]4(C)[C@]3(C)CC[C@@H]12` ?
RESULT: 16 µM

QUERY: Would you mind telling me what EC50 at 10 min value was observed for `CC[C@H](CC[C@@H](C)[C@H]1CC[C@H]2[C@@H]3CC=C4C[C@@H](O)CC[C@]4(C)[C@H]3CC[C@]12C)C(C)C` ?
RESULT: 19 µM

Read the next record carefully.
QUERY: Would you mind telling me what EC50 at 10 min value was observed for `C[C@@H]1O[C@@H](O[C@H]2[C@H](O[C@H]3CC[C@@]4(C)[C@@H](CC[C@]5(C)[C@@H]4CC=C4[C@@H]6CC(C)(C)CC[C@]6(C(=O)O)CC[C@]45C)[C@]3(C)CO)OC[C@H](O)[C@@H]2O)[C@H](O)[C@H](O)[C@H]1O` ?
RESULT: 4 µM

====

Protocol: Critical micellar concentration of the compound in 0.1 M PBS after 10 mins by Wilhelmy plate method using tensitometer
Assay type: physicochemical
Stated conditions: buffer
Result type: CMC (µM)
The figure you give is taken to be in µM; do not add the unit.

// worked examples, CMC included
QUERY: Would you mind telling me what CMC value was observed for `C[C@@H]1O[C@@H](O[C@H]2[C@H](O[C@H]3CC[C@@]4(C)[C@@H](CC[C@]5(C)[C@@H]4CC=C4[C@@H]6CC(C)(C)CC[C@]6(C(=O)O)CC[C@]45C)[C@]3(C)CO)OC[C@H](O)[C@@H]2O)[C@H](O)[C@H](O)[C@H]1O` ?
RESULT: 13

QUERY: Would you mind telling me what CMC value was observed for `C[C@@H]1O[C@@H](O[C@H]2[C@H](O[C@H]3CC[C@@]4(C)[C@@H](CC[C@]5(C)[C@@H]4CC=C4[C@@H]6CC(C)(C)CC[C@]6(C(=O)O[C@@H]6O[C@H](CO[C@@H]7O[C@H](CO)[C@@H](O[C@@H]8O[C@@H](C)[C@H](O)[C@@H](O)[C@H]8O)[C@H](O)[C@H]7O)[C@@H](O)[C@H](O)[C@H]6O)CC[C@]45C)[C@]3(C)CO)OC[C@H](O)[C@@H]2O)[C@H](O)[C@H](O)[C@H]1O` ?
RESULT: 82

QUERY: Would you mind telling me what CMC value was observed for `CC[C@H](CC[C@@H](C)[C@H]1CC[C@H]2[C@@H]3CC=C4C[C@@H](O)CC[C@]4(C)[C@H]3CC[C@]12C)C(C)C` ?
RESULT: 241

Next:
QUERY: Would you mind telling me what CMC value was observed for C[C@@H]1CC[C@@]2(OC1)O[C@H]1[C@@H](O)[C@H]3[C@@H]4CC[C@H]5C[C@@H](O[C@@H]6O[C@H](CO)[C@H](O[C@@H]7O[C@H](CO)C(O)[C@H](O[C@@H]8OC[C@@H](O)[C@H](O)[C@H]8O)[C@H]7O[C@@H]7O[C@H](CO)[C@H](O)[C@H](O[C@@H]8O[C@H](CO)[C@@H](O)[C@H](O)[C@H]8O)[C@H]7O)[C@H](O)[C@H]6O)[C@H](O)C[C@]5(C)[C@H]4CC[C@]3(C)[C@H]1[C@@H]2C (some centres undefined) ?
RESULT: 163
